Hi there, I'd appreciate the recorded Octet binding response for every entry that follows.
ASSAY SYSTEM: T1, hMPV PostF trimer (human metapneumovirus, strain B2)
T1 construct: also called MPV PostF (dPFv1)
ASSAY OVERVIEW: BLI, mAb on anti-human Fc sensor

M2B10 (antibody, V domains shown, IgG) VH: QVQLVESGGGVVQPGRSLRLSCAASGFTFSNYPMHWVRQAPGKGLAWVALISYDGRTKYYADSVKGRFTISRDNSMNTVYLQMNSLRAEDTAVYYCAREGLEYLNYWGQGTLVTVSS VL: EIVLTQSPGTLSLSPGERATLSCRASQSISSNSLAWYQQKPGQAPRLLSYGTSNRATGIPDRFSGSGSGTDFTLTISRLEPEDFAVYYCQQYGSSPLTFGPGTKVDIK :: -0.0646 nm
M2B04 (antibody, V domains shown, IgG) VH: QVQLVQSGPEVKKPGASVKVSCKASGYSITTYGIDWVRQAPGQGLEWIGWSSAHTGNTNYAEKFQGRVTMTTDTSTYTTYMELRSLKSDDTAVYYCAMGAYTSSRNWFDPWGQGTLVIVSS VL: EIVLTQSPATLSLSPGERATLSCRASQNINNFLAWYQQKAGQAPRLLIYDASNRATGIPGRFSGSGSGTDFTLTISSLEPEDFAVYYCQQRANWPLTFGGGTKVEVK :: 0.0152 nm
M2E08 (antibody, V domains shown, IgG) VH: EVQLVESGGDLVLPGGSLRLSCEASGFMFSSYAMNWVRQAPGKGLERVSGISGSGGNTYYADSVKGRFTISRDNSKNIVYLQMNSLRAEDTAVYYCAKDLGNDYFYYIDVWGKGTTVMVSS VL: QSVLTQPPSVSGAPGQRVTISCTGTNFNIGAGYDVQWYQQLPGAAPKLLIHGNTYRPSGVPDRFSGSKSGTSASLAITGLQAEDEADYYCQSYDSSLSMVFGGGTKLTVL :: -0.0233 nm
M4F8 (antibody, V domains shown, IgG) VH: QVQLVQSGPEVKKPGASVKISCKASEYTFTNHYLHWVRQAPGQGLEWLGIINPTGGSTYYAGDFQGRVTLTRDASTTTVYMELSSVKSEDTAIYYCARDRGMRYFDYWGQGTLVTVSS VL: QSVLTQPPSVSGAPGQRVSISCTGISSNIGATYDVHWYQQLPGTAPKLLIYGNNNRPSGVPDRFSGSKSGTSASLAITGLQAEDEAVYYCQSYDSVLSGSVIFGGGTILTVL :: 0.0408 nm

Now examine the next entry.
Requested read-out: Octet binding response. Entry: M3A08 (antibody, V domains shown, IgG) VH: EVQLVESGGGLVKPGGSLRLSCAASGFSITSYGMHWVRQAPGKGLEWVSSISSSSSYISYRDSVKGRFTVSRDNAGNSLSLQMNSLRGEDTAVYHCARDAGLVPPWMDSWGQGTLVIVSS VL: QSVLTQPPSVSGAAGQRVTISCTGSSSNLGTGYDVHWYRQQPGTAPKLIMFGNTNRPSGVPGRFSGSRSGTSASLAITGLQADDEADYYCQSYDSSLGGLVFGGGTKLTVL
-0.0217 nm
